Experiment: ATG_GLI_CIS: Attagene CIS-FACTORIAL HepG2 Assay for human Zinc Finger Protein GLI1 (AID 2282945)
Details: HepG2, Attagene cis-factorial reporter mRNA, GLI element; actives raise or lower the signal
Activity calls are given as the source filed them. How the source made its calls: active means hit-call score of the fitted dose curve at least 0.9, where 1 is the maximum; inactive means score below 0.9.
Your answer must be one of the following: yes (1) for active, no (0) for inactive

// outcome(item) with item = CCCCCCCCCCCCCCCCCC(=O)O
no (0)

---

Biological target: human CYP2D6, CYP2D6 (gene 1565) (UniProt P10635)
Sequence (P10635 whole entry, looked up): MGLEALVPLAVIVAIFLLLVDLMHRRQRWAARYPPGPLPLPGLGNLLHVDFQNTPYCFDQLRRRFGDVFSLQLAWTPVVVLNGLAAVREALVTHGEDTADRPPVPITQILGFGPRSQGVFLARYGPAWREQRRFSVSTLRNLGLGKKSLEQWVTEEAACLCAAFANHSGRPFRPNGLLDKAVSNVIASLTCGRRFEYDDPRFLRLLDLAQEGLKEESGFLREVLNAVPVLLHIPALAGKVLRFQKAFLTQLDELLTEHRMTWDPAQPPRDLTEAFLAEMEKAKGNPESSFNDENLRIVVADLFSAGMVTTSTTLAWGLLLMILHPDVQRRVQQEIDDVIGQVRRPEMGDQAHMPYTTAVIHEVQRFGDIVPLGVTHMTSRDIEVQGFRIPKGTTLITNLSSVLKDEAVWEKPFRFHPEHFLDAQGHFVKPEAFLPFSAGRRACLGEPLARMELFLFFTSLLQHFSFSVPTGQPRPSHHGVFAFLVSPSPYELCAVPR
Test: NVS_ADME_hCYP2D6: NovaScreen (NVS) CYP450-related Enzyme Activity (ADME) Assay for human CYP2D6 (AID 2283107)
Description: NVS_ADME_hCYP2D6 is a biochemical, single-readout assay that uses extracted gene-proteins from insect cells in a cell-free assay. Measurements were taken 1 hour after chemical dosing in a 96-well plate.NVS_ADME_hCYP2D6 is one of one assay component(s) measured or calculated from the NVS_ADME_hCYP2D6 assay. […] This assay endpoint, NVS_ADME_hCYP2D6, was analyzed in the positive analysis fitting direction relative to Acetonitrile as the negative control and baseline of activity. […]
The source made the active and inactive calls. The calls were made as follows: active = hit-call score of the fitted dose curve at least 0.9, where 1 is the maximum; inconclusive = response in the unintended direction; inactive = score below 0.9.
Thanks in advance; please answer with one of these: label 1 for active, label 0 for inactive

• CCOc1ccc2c(c1)C(C)=CC(C)(C)N2 = label 1

# fetch the recorded call for CCOC(=O)CCC(=O)OCC here
label 0

Given CCCCCCC(=O)OCC , state the outcome it received in this test.
label 0

Dear all, I need the recorded test outcome for O=C(O)Cc1ccccc1Nc1c(Cl)cccc1Cl , thank you.
label 0

---

Read-out: Interleukin-6 (IL6), IL6 (gene 3569)
Assay: BSK_CASM3C_IL6: BioMAP Diversity Plus: CASM3C Assay for Interleukin-6 (IL6) Biomarker Activity for (AID 2283040)
Conditions: primary human coronary artery smooth muscle cells; actives raise or lower the signal
Activity calls are given as the source filed them. Rule for the calls: active = hit-call score of the fitted dose curve at least 0.9, where 1 is the maximum; inactive = score below 0.9.
Respond only with the outcome that fits, drawn from active, inactive

• CCCCCC(=O)O = inactive
• CN1CCN(Cc2cc(-c3ccc4[nH]c(=O)oc4c3)co2)[C@@H](c2ccc(F)cc2)C1 = inactive
• CNCc1cc(F)ccc1Oc1ccc(Cl)c(Cl)c1 = inactive
• Cc1cc(=O)[nH]c(=S)[nH]1 = inactive
• Cc1ccccc1Cl = inactive
• Cc1ccc(C)c(C)c1 = inactive
• Cc1cccc(Nc2cc(Cl)nc(SCC(=O)O)n2)c1C = inactive
• O=C(N[C@@H](Cc1ccccc1)[C@@H](O)C(=O)N1C[C@@H](O)[C@@H](O)C1)c1cc2cc(Cl)ccc2[nH]1 = inactive
• NS(=O)(=O)c1cc2c(cc1Cl)NCNS2(=O)=O = inactive
• CCCCc1ccc2c(n1)[C@@H](c1ccc(OC)cc1C[C@H](C)C(=O)O)[C@H](C(=O)O)[C@H]2c1ccc2c(c1)OCO2 = inactive

What was the test verdict on FC(F)(F)C(F)(F)C(F)(F)C(F)(F)C(F)(F)C(F)(F)CCI ?
inactive

Status in this test for COc1ccc2c(c1)c(CC(=O)O)c(C)n2C(=O)c1ccc(Cl)cc1 ?
inactive

Which outcome did this test record for the molecule Cc1cc(NC(=O)C(=O)O)cc(C)c1Oc1ccc(O)c2c1CCC2 ?
inactive

---

Read-out: Lipase C (LIPC), LIPC (gene 3990)
Assay: LTEA_HepaRG_LIPC: Life Technologies and Expression Analysis (LTEA) Assay for Lipase C (LIPC) using HepaRG (AID 2283514)
Settings: mRNA level, 48 h; actives raise or lower the signal
Activity calls are given as the source filed them. How the source made its calls: active means hit-call score of the fitted dose curve at least 0.9, where 1 is the maximum; inactive means score below 0.9.
property: AC50

Recorded AC50, per entry:
• CCCCCCCCCCCCCO = inactive
• Cc1cccc(Nc2cc(Cl)nc(SCC(=O)O)n2)c1C = inactive
• COc1cc(-c2nc(NC(=O)c3cc4cc(C)cc(C)c4n3CC(=O)O)sc2CCC2CCCCC2)c(OC)cc1Cl = 6.41 µM (active)
• CCOc1ccc2c(c1)C(C)=CC(C)(C)N2 = inactive
• CC(=O)OCCOCCOCCOC(C)=O = inactive
• COCCOCCOC = 0.983 µM (active)
• NS(=O)(=O)c1cc2c(cc1Cl)NCNS2(=O)=O = inactive
• C=CCOC(=O)c1ccccc1C(=O)OCC=C = inactive

Now let's try a different one.
// fetch AC50 given entry Cc1cc(NC(=O)C(=O)O)cc(C)c1Oc1ccc(O)c2c1CCC2
inactive

---

Target: PGR (gene 5241)
Assay: TOX21_PR_LUC_Followup_Antagonist: Tox21 HEK293 Progesterone Receptor (PR) Antagonism Luciferase Follow-Up Assay (AID 2283938);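 further: curve fitted upward as signal gain over DMSO baseline despite antagonist label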
Inconclusive results are not listed. Activity calls are given as the source filed them. How the source made its calls: active means hit-call score of the fitted dose curve at least 0.9, where 1 is the maximum; inconclusive means response in the unintended direction; inactive means score below 0.9.
property: outcome

* CCc1c(C(=O)NN2CCCCC2)nn(-c2ccc(Cl)cc2Cl)c1-c1ccc(Br)cc1 | inactive
* Oc1ccc2c(c1)OC[C@@H](N1CCC(O)(c3ccc(F)cc3)CC1)[C@H]2O | inactive
* C[C@]12C=CC(=O)C=C1CC[C@@H]1[C@@H]2C(=O)C[C@@]2(C)[C@H]1CC[C@]2(O)C(=O)CO | inactive
* O=c1c(O)c(-c2ccc(O)c(O)c2)oc2cc(O)cc(O)c12 | inactive

---

Read-out: Interferon-gamma inducible Protein 10 (IP10), CXCL10 (gene 3627)
Experiment: BSK_BE3C_IP10: BioMAP Diversity Plus: BE3C Assay for Interferon-gamma inducible Protein 10 (IP10) Biomarker Activity (AID 2283034)
Conditions: primary human bronchial epithelial cells; actives raise or lower the signal
Activity calls are given as the source filed them. The calls were made as follows: active = hit-call score of the fitted dose curve at least 0.9, where 1 is the maximum; inactive = score below 0.9.
Please reply with one of these outcomes: TRUE = active, FALSE = inactive

See these solved cases before continuing.
- C1CCC(SSC2CCCCC2)CC1: FALSE
- COc1cc(S(=O)(=O)O)c(C)cc1N=Nc1c(O)ccc2cc(S(=O)(=O)O)ccc12: FALSE
- CCCCN(CCCC)CCCC: FALSE
- O=c1c(O)c(-c2ccc(O)c(O)c2)oc2cc(O)cc(O)c12: FALSE
- CN[C@H]1CC[C@@H](c2ccc(Cl)c(Cl)c2)c2ccc(S(N)(=O)=O)cc21: TRUE

Per the assay record, what outcome was assigned to NC(=O)Cn1c(=O)cc(CCN2CCN(c3nccc4sccc34)CC2)c2ccc(F)cc21 ?
FALSE

Write down the call the test reported for this molecule. Item: CCCCCCCCCCO
FALSE

---

Read-out: UDP glucuronosyltransferase (UGT1A6), UGT1A6 (gene 54578)
Assay: LTEA_HepaRG_UGT1A6: Life Technologies and Expression Analysis (LTEA) Assay for UDP glucuronosyltransferase (UGT1A6) using HepaRG (AID 2283539)
Conditions: mRNA level, 48 h; actives raise or lower the signal
Activity calls are given as the source filed them. Rule for the calls: active = hit-call score of the fitted dose curve at least 0.9, where 1 is the maximum; inactive = score below 0.9.
A correct response names exactly one class from 1.0 = active, 0.0 = inactive

Before answering, review these 4 worked examples.
- CN1CCN(Cc2cc(-c3ccc4[nH]c(=O)oc4c3)co2)[C@@H](c2ccc(F)cc2)C1: 0.0
- CC1(C)NC(=O)NC1=O: 0.0
- O=c1c(O)c(-c2ccc(O)c(O)c2)oc2cc(O)cc(O)c12: 0.0
- CNC(=O)[C@H]1O[C@@H](n2cnc3c(NCc4cc(Cl)ccc4OCc4cc(C)no4)ncnc32)[C@H](O)[C@@H]1N: 0.0

We next turn to a different molecule, shown below.
Outcome? COc1ccc(S(=O)(=O)N2C(=O)[C@@](c3ccccc3OC)(N3C[C@H](O)C[C@H]3C(=O)N(C)C)c3cc(Cl)ccc32)c(OC)c1
1.0

---

Read-out: Interleukin-8 (IL8), CXCL8 (gene 3576)
Assay: BSK_3C_IL8: BioMAP Diversity Plus: 3C Assay for Interleukin-8 (IL8) Biomarker Activity (AID 2283020)
Conditions: primary human endothelial cells (HUVEC); actives raise or lower the signal
Active and inactive are the calls of the source. The calls were made as follows: active = hit-call score of the fitted dose curve at least 0.9, where 1 is the maximum; inactive = score below 0.9.
property: AC50

• CC(C)(C)c1cc(O)c(C(C)(C)C)cc1O = inactive
• CCNc1cccc(C)c1 = inactive
• CCCCOC(=O)CCCCCCCCC(=O)OCCCC = inactive
• O=c1c(O)c(-c2ccc(O)c(O)c2)oc2cc(O)cc(O)c12 = 14.5 µM (active)
• C1CCC(SSC2CCCCC2)CC1 = inactive
• COc1cc(-c2nc(NC(=O)c3cc4cc(C)cc(C)c4n3CC(=O)O)sc2CCC2CCCCC2)c(OC)cc1Cl = 5.83 µM (active)
• CC=Cc1ccc(O)c(OC)c1 = inactive
• NCCO = inactive

Tell us which AC50 value is on record for CCOc1ccc2c(c1)C(C)=CC(C)(C)N2
inactive

Give reported AC50 value for COCCOCCOC
inactive

---

Assay: BSK_LPS_PGE2: BioMAP Diversity Plus: LPS Assay for Prostaglandin E2 (PGE2) Biomarker Activity (AID 2283082)
Conditions: primary human HUVEC with PBMC; actives raise or lower the signal
Active and inactive are the calls of the source. Rule for the calls: active = hit-call score of the fitted dose curve at least 0.9, where 1 is the maximum; inactive = score below 0.9.
Output constraint: value belongs to yes (1) for active, no (0) for inactive

Known results for compounds:
• Nc1ccc(S(=O)(=O)c2ccc(N)cc2)cc1 = no (0)
• CNCc1cc(F)ccc1Oc1ccc(Cl)c(Cl)c1 = no (0)
• CC(C)(C)c1cc(O)c(C(C)(C)C)cc1O = yes (1)
• C=CCOC(=O)c1ccccc1C(=O)OCC=C = no (0)
• CC=Cc1ccc(O)c(OC)c1 = yes (1)

Please state the recorded outcome for this compound: CCCCCCCCCCCCCO
no (0)

What is the recorded call for this compound in the test? CCCCCCOCCO
no (0)

Look up the recorded call for CCCc1cc(=O)[nH]c(=S)[nH]1 in this test.
no (0)

Returns: the outcome recorded for O=c1c(O)c(-c2ccc(O)c(O)c2)oc2cc(O)cc(O)c12 in this assay.
yes (1)

In this assay, the call recorded for COc1cc(S(=O)(=O)O)c(C)cc1N=Nc1c(O)ccc2cc(S(=O)(=O)O)ccc12 was what?
no (0)
